Test system: N140
Test: qHTS profiling for inhibitors of Plasmodium falciparum proliferation (AID 504749); further: nearly all actives have a fitted effect of over 60% in size
Conditions: P. falciparum in erythrocytes, SYBR Green DNA, 72 h; series mostly up to 28.7 µM
Results filed as inconclusive are left out. The source made the active and inactive calls. The call rests on the fitted dose curve; in most records, active means well fitted inhibition curve with a large enough effect; inconclusive means small, poorly fitted or top-dose-only effect; inactive means flat fitted curve, though single readings scatter.
Choose the fitting class; nothing outside active, inactive is accepted.

Below are worked cases with known answers.
molecule=O=C(OCCOCCO)c1ccccc1Nc1cccc(C(F)(F)F)c1 subject_of_test=N140 classification=inactive
molecule="c1ccc(-c2ccc(C(c3ccccc3)n3ccnc3)cc2)cc1 (centres undefined)" subject_of_test=N140 classification=active
molecule=CCCCCCc1ccc(O)cc1O subject_of_test=N140 classification=inactive
molecule=CCCN1CCCC[C@H]1C(=O)Nc1c(C)cccc1C subject_of_test=N140 classification=inactive
molecule=CC(=O)OCC(=O)NCCCOc1cccc(CN2CCCCC2)c1 subject_of_test=N140 classification=inactive

What is the recorded call for this molecule in the test? `C[C@H](O)C(=O)Nc1c(I)c(C(=O)NC(CO)CO)c(I)c(C(=O)NC(CO)CO)c1I`
inactive

Which outcome was entered for the molecule COc1cccc(CCc2ccccc2OCC(CN(C)C)OC(=O)CCC(=O)O)c1 (centres undefined) in this test?
active

Name the outcome recorded for `Cc1c(C)n(Cc2ccccc2)c2ccc(C(=O)OCCN(C)C)cc12` in the assay.
inactive

What outcome does the record of this test show for `CCN(CC)CCNC(=O)COc1ccc(Cl)cc1` ?
active

Entry `CN(C)CC/C=C1\c2ccccc2Sc2ccc(Cl)cc21` : call = ?
active

// param item: `NC(=O)C(=O)N/N=C/c1ccc([N+](=O)[O-])o1` ; yields the recorded call
inactive

Record lookup: outcome of this test for `CCOC(=O)n1ccn(C)c1=S` ?
inactive

Hi, do you know how `CCCCCC=CCC=CCCCCCCCC(=O)OCC` came out in this test?
inactive

Dear all, I need the recorded test outcome for `CC(C)(CO)[C@@H](O)C(=O)NCCCO` , thank you.
inactive

Hello, I am checking results. What call was entered for CCCCC(CC)CN=C(N)NC(N)=NCCCCCCN=C(N)NC(N)=NCC(CC)CCCC (centres undefined) ?
active

Give the logged outcome of this assay for the following molecule: `Cc1c(C(N)=O)cc([N+](=O)[O-])cc1[N+](=O)[O-]`
inactive

Could you check what this test reported for `Cc1cc(=O)n(-c2ccccc2)n1C` ?
inactive

GET /call?item= `C[N+]1(CCCCC[N+]2(C)CCCC2)CCCC1` returns the recorded outcome of this test.
inactive

Test call for this molecule, please: `NCCCC[C@H](N[C@@H](CCc1ccccc1)C(=O)O)C(=O)N1CCC[C@H]1C(=O)O`
inactive

Test call, this molecule: `c1ccc(OCc2ccc(CCCN3CCOCC3)cc2)cc1`
inactive

Write down the call the test reported for this molecule. Item: `CN1CCC(=C2c3ccccc3Sc3ccccc32)CC1`
active

====

Tested on: Es-2
Assay: Primary qHTS to identify gynecologic anti-cancer compounds using libraries of approved drugs and bioactive compounds (AID 1345084); further: nearly all actives have a fitted effect of over 55% in size
Settings: Gynecologic cancer cell panel viability, ATPlite luminescence, 48 h; series mostly up to 57.5 µM
Inconclusive results are not listed. Active and inactive are the calls of the source. The call rests on the fitted dose curve; in most records, active means well fitted cell-killing curve with a large enough effect; inconclusive means small, poorly fitted or top-dose-only effect, or effect the other way; inactive means flat fitted curve, though single readings scatter.
Select the correct class. Options are active, inactive and nothing else.

Examples with answers:
compound="C[n+]1c2cc(N)ccc2cc2ccc(N)cc21 (tested in a mixture with another compound)" classification=active
compound=O=S1(=O)c2cccc3cccc(c23)N1CCCN1CCN(c2ccc(F)cc2)CC1 classification=inactive
compound=C[C@H]1C[C@H]2[C@@H]3CCC4=CC(=O)C=C[C@]4(C)[C@@]3(Cl)[C@@H](O)C[C@]2(C)[C@@]1(O)C(=O)CO classification=inactive

Turning now to a further record.
Any idea what this test logged for `C=C(CC)C(=O)c1ccc(OCC(=O)O)c(Cl)c1Cl` ?
inactive

====

System: JCK
Assay: qHTS profiling for inhibitors of Plasmodium falciparum proliferation (AID 504749); further: nearly all actives have a fitted effect of over 60% in size
Details: P. falciparum in erythrocytes, SYBR Green DNA, 72 h; series mostly up to 28.7 µM
Results filed as inconclusive are left out. Activity calls are given as the source filed them. Calls follow the shape of the dose curve; as a rule, active = well fitted inhibition curve with a large enough effect; inconclusive = small, poorly fitted or top-dose-only effect; inactive = flat fitted curve, though single readings scatter.
Just give me one of these, please: 1 for active, 0 for inactive

Example cases with answers are listed next.
structure_as_smiles=c1ccc(OCc2ccc(CCCN3CCOCC3)cc2)cc1 subject_of_test=JCK classification=0
structure_as_smiles=C[C@H]1C[C@H]2[C@@H]3CCC4=CC(=O)C=C[C@]4(C)[C@@]3(Cl)[C@@H](O)C[C@]2(C)[C@@]1(O)C(=O)CO subject_of_test=JCK classification=0
structure_as_smiles=CCOc1ccc2nc3cc(N)ccc3c(N)c2c1 subject_of_test=JCK classification=1

How did this test come out for `Cc1cc(=O)n(-c2ccccc2)n1C` ?
0

Could you please tell me the result logged for `O=c1ccc2ccccc2o1` in this assay?
0

Dear colleague, could you share the recorded outcome for `Cc1c(C)n(Cc2ccccc2)c2ccc(C(=O)OCCN(C)C)cc12` when you have a moment?
0

====

Target: Voltage-gated inwardly rectifying potassium channel KCNH2 (Homo sapiens)
Experiment: qHTS Assay for Small Molecule Inhibitors of the Human hERG Channel Activity (AID 588834);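 further: lower thallium flux fluorescence means stronger hERG block; nearly all actives have a fitted effect of over 50% in size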
Conditions: U2OS BacMam hERG, FluxOR thallium flux fluorescence; series mostly up to 46.1 µM
Results filed as inconclusive are left out. The source made the active and inactive calls. Calls follow the shape of the dose curve; as a rule, active = well fitted inhibition curve with a large enough effect; inconclusive = small, poorly fitted or top-dose-only effect; inactive = flat fitted curve, though single readings scatter.
// one of true (1) = active, false (0) = inactive, no free text

Solved entries:
compound=Cc1cccn2c(=O)c(-c3nnn[nH]3)cnc12 classification="false (0)"
compound=COc1c(C)c2c(c(O)c1C/C=C(\C)CCC(=O)O)C(=O)OC2 classification="false (0)"
compound=OC[C@H]1O[C@@H](n2cnc3c(=S)nc[nH]c32)[C@H](O)[C@@H]1O classification="false (0)"
compound="CCCCCCCCCCCCCCCCCC(=O)OCC(O)CO (stereo not drawn)" classification="false (0)"
compound=CN(C)CC/C=C1\c2ccccc2Sc2ccc(Cl)cc21 classification="true (1)"
compound=O=C(N/N=C/c1ccccc1O)c1ccncc1 classification="false (0)"
compound=C[C@]12CCC(=O)C=C1CC[C@H]1[C@@H]3CC[C@](O)(C(=O)CO)[C@@]3(C)C[C@H](O)[C@@]12F classification="false (0)"

What did the test return for COc1ccc(OC)c(C(O)CNC(=O)CN)c1 (stereo not drawn) ?
false (0)

====

Tested on: GB4
Test: qHTS profiling for inhibitors of Plasmodium falciparum proliferation (AID 504749); further: nearly all actives have a fitted effect of over 60% in size; further: potency means the concentration at half of the fitted maximal effect
Conditions: P. falciparum in erythrocytes, SYBR Green DNA, 72 h; series mostly up to 28.7 µM
Records with an inconclusive call do not appear. Calls of active or inactive are those of the source. The call rests on the fitted dose curve; in most records, active means well fitted inhibition curve with a large enough effect; inconclusive means small, poorly fitted or top-dose-only effect; inactive means flat fitted curve, though single readings scatter.
experimental readout: Potency

Worked set:
compound=CC[N+](CC)(CCNC(=O)C(=O)NCC[N+](CC)(CC)Cc1ccccc1Cl)Cc1ccccc1Cl experimental_readout=Potency val="2.39 µM (active)"
compound="CNCCC(Oc1ccccc1C)c1ccccc1 (stereo unspecified)" experimental_readout=Potency val=inactive
compound=CNCCC=C1c2ccccc2CCc2ccccc21 experimental_readout=Potency val="8.49 µM (active)"
compound=O=C1OC(c2ccc(O)cc2)(c2ccc(O)cc2)c2ccccc21 experimental_readout=Potency val=inactive
compound=COc1ccc(/C=C/C(=O)c2ccc(OC)cc2OC)cc1 experimental_readout=Potency val="7.57 µM (active)"

Provide the reported Potency of each entry below, same order.
1. CCN(CC)C(=O)N1CCN(C)CC1
2. CCN(CC)CCOc1ccc(C(O)(Cc2ccc(Cl)cc2)c2ccc(C)cc2)cc1 (stereo unspecified)
3. O=c1ccc2ccccc2o1
4. CCCCC(CC)CN=C(N)NC(N)=NCCCCCCN=C(N)NC(N)=NCC(CC)CCCC (stereo unspecified)
5. O=C(O)c1cc2cc(Cc3cccnc3)ccc2o1
6. COc1ccc(C2C(=O)c3ccccc3C2=O)cc1
7. C[C@@H]1CN(CCCn2c3ccccc3c3ccccc32)C[C@H](C)N1

1. inactive
2. 13.5 µM (active)
3. inactive
4. 1.51 µM (active)
5. inactive
6. inactive
7. 13.5 µM (active)

Batch: Potency for all items listed.
1. CCOc1ccc(NC(=O)CC(C)O)cc1 (stereo unspecified)
2. NC(=NCCCCCCN=C(N)/N=C(\N)Nc1ccc(Cl)cc1)/N=C(\N)Nc1ccc(Cl)cc1
3. O=c1c(-c2ccccc2)c1-c1ccccc1
4. CCN1CCCC1=O
5. Cc1ccnc(NS(=O)(=O)c2ccc(N)cc2)n1
6. COc1cc(-c2ccc(=O)[nH]n2)ccc1OC(F)F
7. COc1cc(C(=S)N2CCOCC2)cc(OC)c1OC

1. inactive
2. 1.07 µM (active)
3. 10.7 µM (active)
4. inactive
5. inactive
6. inactive
7. inactive

Record Potency for all entries; do not skip any.
1. CCN1CCN(c2cc3c(cc2F)c(=O)c(C(=O)O)cn3C2CC2)CC1
2. C[N+]1(CCCCC[N+]2(C)CCCC2)CCCC1
3. Nc1ccc(C(=O)O)cc1
4. CN1CCC(=C2c3ccccc3Sc3ccccc32)CC1

1: inactive; 2: inactive; 3: inactive; 4: 3.38 µM (active)
